Target: human recombinant collagenase (Homo sapiens)
Sequence (P03956 100-469): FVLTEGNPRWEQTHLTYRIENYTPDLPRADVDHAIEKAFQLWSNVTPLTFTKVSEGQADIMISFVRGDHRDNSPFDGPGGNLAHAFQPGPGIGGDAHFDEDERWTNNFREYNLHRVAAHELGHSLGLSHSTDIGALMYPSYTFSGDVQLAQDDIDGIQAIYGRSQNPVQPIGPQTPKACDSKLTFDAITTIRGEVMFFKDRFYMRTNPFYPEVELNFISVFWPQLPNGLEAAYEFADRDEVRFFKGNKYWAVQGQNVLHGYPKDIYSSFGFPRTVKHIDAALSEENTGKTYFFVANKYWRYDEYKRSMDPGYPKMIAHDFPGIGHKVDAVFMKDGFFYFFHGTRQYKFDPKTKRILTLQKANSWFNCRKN
Test: Collagenase inhibition assay
Details: acetylated 3H type 1 bovine collagen, 37° C., 18 h
pIC50: −log10 of the molar value.
Quantity: pIC50

Consider the following illustrative entries.
O=C(NO)[C@@H](C1CCCCC1)N(Cc1ccco1)S(=O)(=O)Cc1ccc2sccc2c1 | ≥ 5.00
O=C(NO)C(c1ccccc1)N(Cc1cccnc1)S(=O)(=O)Cc1ccc2sccc2c1 (racemic) | ≥ 5.00
CC(C)C[C@H](C(=O)NO)N(Cc1cccnc1)S(=O)(=O)Cc1ccc2sccc2c1 | ≥ 5.00

Next up:
Ask: For the compound "COCCOCCN([C@@H](C(=O)NO)c1ccccc1)S(=O)(=O)Cc1ccc2sccc2c1" , what pIC50 is on record?
Result: ≥ 5.00
